// reported %Inh per item
- Tested on: p38-alpha;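 note: KINOMEscan kinase panel screen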
- Construct: gene MAPK14
- Experimental conditions: concentration: 1 μM, replicates: in singlicate; n = 1
Hi! Could you send only the number? It should be in %, unit omitted.

>>> print(df.to_string())
                                   compound  endpoint_value
0           Nc1cccc(-c2ccc3c(N)n[nH]c3c2)n1               8
1  Cc1ccc(NC(=O)Nc2ccccc2)cc1-c1ccc(C(=O)Nc2ccncc2)cc1               0
2  COc1ccc(Nc2nccc(N3CCC(NC(=O)c4cc5ccccc5s4)C3)n2)cc1 (stereo not drawn)              20
3  NS(=O)(=O)c1cccc(N/C=C2\C(=O)Nc3ccc(S(=O)(=O)Cc4c(Cl)cccc4Cl)cc32)c1               0
4  O=c1cc(N2CCOCC2)nc2n(Cc3cccc(Cl)c3Cl)c3ccccc3n12              12
5  Cc1ccc(NC(=O)Nc2ccc(Cl)cc2)cc1-c1ccc(C(=O)Nc2ccncc2)cc1              72

INPUT: Fill in the blank: the reported %Inh of Cn1cncc1C(=O)NC1CCN(c2ccnc(Nc3ccc(F)cc3)n2)C1 (stereo not drawn) is ____.
OUTPUT: 0

INPUT: Fill in the blank: the reported %Inh of COc1ccc(CSc2nnc(-c3ccc4ncsc4c3)o2)cc1C(F)(F)F is ____.
OUTPUT: 0

INPUT: Fill in the blank: the reported %Inh of COc1ccc(-c2coc3ccc(-c4nnc(C)o4)cc23)cc1 is ____.
OUTPUT: 0

INPUT: Fill in the blank: the reported %Inh of COc1ccc2cc(-c3nc(-c4ccccc4C(C)C)[nH]c3-c3ccncc3)ccc2c1 is ____.
OUTPUT: 3

INPUT: Fill in the blank: the reported %Inh of CNc1nc(-c2ccc3c(N)n[nH]c3c2)cc(N2C[C@@H](C(=O)Nc3ccccc3)CC[C@H]2C)n1 is ____.
OUTPUT: 22

INPUT: Fill in the blank: the reported %Inh of CC(=O)c1c(C)c2cnc(Nc3ccc(N4CCNCC4)cn3)nc2n(C2CCCC2)c1=O is ____.
OUTPUT: 0
